All figures here come from patent US8293786B2.

# System: human abdominal skin
# measurement description: In vitro human skin permeation and skin disposition, flow-through diffusion cells (Examples 2, 2A, 2B)
# Type: in vitro ADME
# condition: Table 16; 90:8:2 PG:H2O:IPM donor solution, 60/40 Hanks'/PEG 400 receiver fluid; as applied compound (CBD or intact prodrug)
# Protocol: Flow through diffusion cells were used for the permeation studies. HEPES-buffered Hanks' balanced salts containing 40% PEG 400 with gentamicin or 40% aqueous PEG 400 with gentamicin were used for the receiver compartment. Donor solution was comprised of 90:8:2 PG:H2O:IPM solution or gel formulation. […] Drug accumulation in the skin after a 24, 30 or 42 h diffusion experiment was determined as μmol/g wet tissue weight. […]
parameter measured: Flux (nmol/cm^2/h)

compound="C=C(C)C1CCC(C)=CC1c1c(O)cc(CCCCC)cc1OC(=O)COCCOCCOC (stereo not shown) [ALL00140, CBD 2-[2-(2-methoxyethoxy)ethoxy]acetate]" tested_on="human abdominal skin" meas_value=1.3
compound="C=C(C)[C@@H]1CCC(C)=C[C@H]1c1c(OC(=O)COCCOCCOCCOC)cc(CCCCC)cc1OC(=O)COCCOCCOCCOC [ALL00132, CBD di(3,6,9,12-tetraoxatridecanoate)]" tested_on="human abdominal skin" meas_value=1.4
compound="C=C(C)[C@@H]1CCC(C)=C[C@H]1c1c(O)cc(CCCCC)cc1O [cannabidiol, reference compound]" tested_on="human abdominal skin" meas_value=6.5
compound="C=C(C)[C@@H]1CCC(C)=C[C@H]1c1c(O)cc(CCCCC)cc1OC(=O)COCCOCCOCCOC [ALL00131, CBD 3,6,9,12-tetraoxatridecanoate]" tested_on="human abdominal skin" meas_value=2.3

---

# measurement description: Plasma stability of cannabidiol prodrugs (bioconversion to parent drug)
# Assay type: in vitro ADME
# condition: Table 20; di-prodrug in plasma, mono-prodrug formed; 24 h
A collection of molecules and their measured % mono-prodrug at time (h)
parameter measured: % mono-prodrug at time (h) (%)

molecule="C=C(C)[C@@H]1CCC(C)=C[C@H]1c1c(OC(=O)COCCOCCOCCOC)cc(CCCCC)cc1OC(=O)COCCOCCOCCOC [ALL00132, CBD di(3,6,9,12-tetraoxatridecanoate)]" parameter_measured="% mono-prodrug at time (h)" meas_value=2
molecule="C=C(C)[C@@H]1CCC(C)=C[C@H]1c1c(OC(=O)OC)cc(CCCCC)cc1OC(=O)OC [ALL00143, CBD Bis(Methyl Carbonate)]" parameter_measured="% mono-prodrug at time (h)" meas_value=0
molecule="C=C(C)[C@@H]1CCC(C)=C[C@H]1c1c(OC=O)cc(CCCCC)cc1OC=O [ALL00145, CBD Diformate]" parameter_measured="% mono-prodrug at time (h)" meas_value=11
molecule="C=C(C)C1CCC(C)=CC1c1c(OC(=O)CN(C)C)cc(CCCCC)cc1OC(=O)CN(C)C (stereo not drawn) [ALL00105, CBD bis(N,N-dimethylglycinate)]" parameter_measured="% mono-prodrug at time (h)" meas_value=0
molecule="C=C(C)[C@@H]1CCC(C)=C[C@H]1c1c(OC(C)=O)cc(CCCCC)cc1OC(C)=O [ALL00142, CBD Diacetate]" parameter_measured="% mono-prodrug at time (h)" meas_value=0
molecule="C=C(C)[C@@H]1CCC(C)=C[C@H]1c1c(OC(=O)CO)cc(CCCCC)cc1OC(=O)CO [ALL00147, CBD Diglycolate]" parameter_measured="% mono-prodrug at time (h)" meas_value=0

---

# System: human abdominal skin
# measurement description: In vitro human skin permeation and skin disposition, flow-through diffusion cells (Examples 2, 2A, 2B)
# Format: in vitro ADME
# condition: Table 16; 90:8:2 PG:H2O:IPM donor solution, 60/40 Hanks'/PEG 400 receiver fluid; as applied compound (CBD or intact prodrug)
parameter measured: 42 h cumulative amt (nmol)

molecule="C=C(C)C1CCC(C)=CC1c1c(O)cc(CCCCC)cc1OC(=O)COCCOCCOC (stereo not shown) [ALL00140, CBD 2-[2-(2-methoxyethoxy)ethoxy]acetate]" tested_on="human abdominal skin" parameter_measured="42 h cumulative amt" meas_value=34.3
molecule="C=C(C)[C@@H]1CCC(C)=C[C@H]1c1c(O)cc(CCCCC)cc1O [cannabidiol, reference compound]" tested_on="human abdominal skin" parameter_measured="42 h cumulative amt" meas_value=154.4
molecule="C=C(C)[C@@H]1CCC(C)=C[C@H]1c1c(OC(=O)COCCOCCOCCOC)cc(CCCCC)cc1OC(=O)COCCOCCOCCOC [ALL00132, CBD di(3,6,9,12-tetraoxatridecanoate)]" tested_on="human abdominal skin" parameter_measured="42 h cumulative amt" meas_value=26.4
molecule="C=C(C)[C@@H]1CCC(C)=C[C@H]1c1c(O)cc(CCCCC)cc1OC(=O)COCCOCCOCCOC [ALL00131, CBD 3,6,9,12-tetraoxatridecanoate]" tested_on="human abdominal skin" parameter_measured="42 h cumulative amt" meas_value=54.9

---

# measurement description: Plasma stability of cannabidiol prodrugs (bioconversion to parent drug)
# Type: in vitro ADME
# condition: Table 20; di-prodrug in plasma, mono-prodrug formed; 1 h
parameter measured: % mono-prodrug at time (h) (%)

molecule="C=C(C)[C@@H]1CCC(C)=C[C@H]1c1c(OC(=O)CCN(C)C)cc(CCCCC)cc1OC(=O)CCN(C)C [ALL00101, CBD bis(3-(dimethylamino)propionate)]" parameter_measured="% mono-prodrug at time (h)" meas_value=22
molecule="C=C(C)[C@@H]1CCC(C)=C[C@H]1c1c(OC(=O)COCCOCCOCCOC)cc(CCCCC)cc1OC(=O)COCCOCCOCCOC [ALL00132, CBD di(3,6,9,12-tetraoxatridecanoate)]" parameter_measured="% mono-prodrug at time (h)" meas_value=52
molecule="C=C(C)[C@@H]1CCC(C)=C[C@H]1c1c(OC(C)=O)cc(CCCCC)cc1OC(C)=O [ALL00142, CBD Diacetate]" parameter_measured="% mono-prodrug at time (h)" meas_value=0
molecule="C=C(C)[C@@H]1CCC(C)=C[C@H]1c1c(OC(=O)OC)cc(CCCCC)cc1OC(=O)OC [ALL00143, CBD Bis(Methyl Carbonate)]" parameter_measured="% mono-prodrug at time (h)" meas_value=0

---

A collection of compounds and their measured % Di-prodrug at time (h)
# measurement description: Plasma stability of cannabidiol prodrugs (bioconversion to parent drug)
# Format: in vitro ADME
# condition: Table 20; di-prodrug in plasma; 24 h
parameter measured: % Di-prodrug at time (h) (%)

compound="C=C(C)[C@@H]1CCC(C)=C[C@H]1c1c(OC(=O)OC)cc(CCCCC)cc1OC(=O)OC [ALL00143, CBD Bis(Methyl Carbonate)]" parameter_measured="% Di-prodrug at time (h)" meas_value=65
compound="C=C(C)[C@@H]1CCC(C)=C[C@H]1c1c(OC(C)=O)cc(CCCCC)cc1OC(C)=O [ALL00142, CBD Diacetate]" parameter_measured="% Di-prodrug at time (h)" meas_value=10
compound="C=C(C)[C@@H]1CCC(C)=C[C@H]1c1c(OC=O)cc(CCCCC)cc1OC=O [ALL00145, CBD Diformate]" parameter_measured="% Di-prodrug at time (h)" meas_value=13
compound="C=C(C)C1CCC(C)=CC1c1c(OC(=O)CN(C)C)cc(CCCCC)cc1OC(=O)CN(C)C (stereo not drawn) [ALL00105, CBD bis(N,N-dimethylglycinate)]" parameter_measured="% Di-prodrug at time (h)" meas_value=55
compound="C=C(C)[C@@H]1CCC(C)=C[C@H]1c1c(OC(=O)COCCOCCOCCOC)cc(CCCCC)cc1OC(=O)COCCOCCOCCOC [ALL00132, CBD di(3,6,9,12-tetraoxatridecanoate)]" parameter_measured="% Di-prodrug at time (h)" meas_value=0
compound="C=C(C)[C@@H]1CCC(C)=C[C@H]1c1c(OC(=O)CO)cc(CCCCC)cc1OC(=O)CO [ALL00147, CBD Diglycolate]" parameter_measured="% Di-prodrug at time (h)" meas_value=12

---

# System: human abdominal skin
# measurement description: In vitro human skin permeation and skin disposition, flow-through diffusion cells (Examples 2, 2A, 2B)
# Type: in vitro ADME
# condition: Table 17; 90:8:2 PG:H2O:IPM donor solution, 40% aqueous PEG 400 receiver fluid; as applied compound (CBD or intact prodrug)
A collection of molecules and their measured 30 h skin conc
parameter measured: 30 h skin conc

molecule="C=C(C)[C@@H]1CCC(C)=C[C@H]1c1c(OC(C)=O)cc(CCCCC)cc1OC(C)=O [ALL00142, CBD Diacetate]" meas_value="5.5 ± 0.3 µmol/g"
molecule="C=C(C)[C@@H]1CCC(C)=C[C@H]1c1c(OC(=O)OC)cc(CCCCC)cc1OC(=O)OC [ALL00143, CBD Bis(Methyl Carbonate)]" meas_value="5.8 ± 3.0 µmol/g"
molecule="C=C(C)[C@@H]1CCC(C)=C[C@H]1c1c(O)cc(CCCCC)cc1O [cannabidiol, reference compound]" meas_value="10.5 ± 6.5 µmol/g"
molecule="C=C(C)[C@@H]1CCC(C)=C[C@H]1c1c(O)cc(CCCCC)cc1OC(=O)[C@@H](O)CO [ALL00137, CBD (S)-2,3-dihydroxypropanoate]" meas_value="0.9 ± 0.3 µmol/g"
